solubility thermodynamic for assorted molecules
protocol.text: Solubility of the compound in water at pH 7.4 by shake flask method
Assay type: physicochemical
Write the number in mg/mL without appending the unit.

Below, each entry is followed by its recorded solubility thermodynamic result.
{"molecule": "COc1cc(O)c2c(=O)cc(-c3ccc(N4CCN(CCC5CCN(c6ccc7c(c6)C(=O)N(C6CCC(=O)NC6=O)C7=O)CC5)CC4)cc3)oc2c1C1=CCN(C)CC1 (stereo not given)", "solubility thermodynamic [mg/mL]": 0.045}
{"molecule": "COc1cc(O)c2c(=O)cc(-c3ccc(N4CCN(CC5CCN(c6ccc7c(c6)C(=O)N(C6CCC(=O)NC6=O)C7=O)CC5)CC4)cc3)oc2c1C1=CCN(C)CC1 (stereo not given)", "solubility thermodynamic [mg/mL]": 0.053}
{"molecule": "COc1cc(O)c2c(=O)cc(-c3ccc(N4CCN(C(=O)C5CCN(c6ccc7c(c6)C(=O)N(C6CCC(=O)NC6=O)C7=O)CC5)CC4)cc3)oc2c1C1=CCN(C)CC1 (stereo not given)", "solubility thermodynamic [mg/mL]": 0.021}

Item: COc1cc(O)c2c(=O)cc(-c3ccc(N4CCN(C(=O)CNc5cccc6c5C(=O)N(C5CCC(=O)NC5=O)C6=O)CC4)cc3)oc2c1C1=CCN(C)CC1 (stereo not given) | solubility thermodynamic: 0.021

For this molecule ( COc1cc(O)c2c(=O)cc(-c3ccc(N4CCN(CC5CCN(c6cccc7c6C(=O)N(C6CCC(=O)NC6=O)C7=O)CC5)CC4)cc3)oc2c1C1=CCN(C)CC1 (stereo not given) ), measured solubility thermodynamic is 0.041
